This collection of values is drawn from PubChem BioAssay (EPA / NIEHS).

Read-out: Apoptosis regulator Bcl-2 (Homo sapiens) (UniProt P10415)
Sequence (P10415 whole entry, looked up): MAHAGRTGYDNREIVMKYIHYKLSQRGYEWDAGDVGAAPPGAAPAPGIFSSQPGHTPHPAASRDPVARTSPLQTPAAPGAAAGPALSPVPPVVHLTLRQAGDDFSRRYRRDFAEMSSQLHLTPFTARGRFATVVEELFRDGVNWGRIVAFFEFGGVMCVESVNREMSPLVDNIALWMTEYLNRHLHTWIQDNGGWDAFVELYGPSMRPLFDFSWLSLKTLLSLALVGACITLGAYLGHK
Procedure Text: LTEA_HepaRG_BCL2: Life Technologies and Expression Analysis (LTEA) Assay for Bcl-2 gene using HepaRG (AID 2283475);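 note: BCL2 transcript by TaqMan qRT-PCR normalised to ACTB GAPDH and POLR2A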
Condition Summary: mRNA level, 48 h; actives raise or lower the signal
Active and inactive are the calls of the source. Rule for the calls: active = hit-call score of the fitted dose curve at least 0.9, where 1 is the maximum; inactive = score below 0.9.
Can you answer with just one of these options? 1 = active, 0 = inactive

[
  {
    "Compound": "CNC(=O)ON=CC(C)(C)SC",
    "Class Label": 0
  },
  {
    "Compound": "COP(=S)(OC)Oc1nc(Cl)c(Cl)cc1Cl",
    "Class Label": 0
  },
  {
    "Compound": "CN(C)C(=S)SSC(=S)N(C)C",
    "Class Label": 0
  },
  {
    "Compound": "N#CC(CCc1ccc(Cl)cc1)(Cn1cncn1)c1ccccc1 (configuration not stated)",
    "Class Label": 1
  },
  {
    "Compound": "C#CCOS(=O)OC1CCCCC1Oc1ccc(C(C)(C)C)cc1 (configuration not stated)",
    "Class Label": 1
  }
]

In this assay, the call recorded for CC(C)C1(C)N=C(c2nc3ccccc3cc2C(=O)O)NC1=O (configuration not stated) was what?
0

In this assay, the call recorded for `CC(C)Oc1cc(-n2nc(C(C)(C)C)oc2=O)c(Cl)cc1Cl` was what?
1

In this assay, the call recorded for `CCCCNC(=O)n1c(NC(=O)OC)nc2ccccc21` was what?
0

In this assay, the call recorded for CC(Oc1ccc(Cl)cc1Cl)C(=O)O (configuration not stated) was what?
0

In this assay, the call recorded for `CCOc1cc(Oc2ccc(C(F)(F)F)cc2Cl)ccc1[N+](=O)[O-]` was what?
1

---

Read-out: Urokinase-type plasminogen activator receptor (uPAR), PLAUR (gene 5329)
Procedure Text: BSK_CASM3C_uPAR: BioMAP Diversity Plus: CASM3C Assay for Urokinase-type plasminogen activator receptor (uPAR) Biomarker Activity (AID 2283054);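 note: cell-surface uPAR protein level quantified by ELISA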
Condition Summary: primary human coronary artery smooth muscle cells; actives raise or lower the signal
Activity calls are given as the source filed them. How the source made its calls: active means hit-call score of the fitted dose curve at least 0.9, where 1 is the maximum; inactive means score below 0.9.
Can you answer with just one of these options? TRUE = active, FALSE = inactive

Example results:
[
  {
    "Compound": "C=CC1(C)OC(=O)N(c2cc(Cl)cc(Cl)c2)C1=O (configuration not stated)",
    "Class Label": "FALSE"
  },
  {
    "Compound": "O=C(O)c1nc(Cl)ccc1Cl",
    "Class Label": "FALSE"
  }
]

In this assay, the call recorded for `O=C(Nc1ccccc1)Nc1ccnc(Cl)c1` was what?
FALSE

---

Target Desc: Androgen Receptor/SRC-1 Co-activator, AR (gene 367) (UniProt P10275)
Sequence (P10275 whole entry, looked up): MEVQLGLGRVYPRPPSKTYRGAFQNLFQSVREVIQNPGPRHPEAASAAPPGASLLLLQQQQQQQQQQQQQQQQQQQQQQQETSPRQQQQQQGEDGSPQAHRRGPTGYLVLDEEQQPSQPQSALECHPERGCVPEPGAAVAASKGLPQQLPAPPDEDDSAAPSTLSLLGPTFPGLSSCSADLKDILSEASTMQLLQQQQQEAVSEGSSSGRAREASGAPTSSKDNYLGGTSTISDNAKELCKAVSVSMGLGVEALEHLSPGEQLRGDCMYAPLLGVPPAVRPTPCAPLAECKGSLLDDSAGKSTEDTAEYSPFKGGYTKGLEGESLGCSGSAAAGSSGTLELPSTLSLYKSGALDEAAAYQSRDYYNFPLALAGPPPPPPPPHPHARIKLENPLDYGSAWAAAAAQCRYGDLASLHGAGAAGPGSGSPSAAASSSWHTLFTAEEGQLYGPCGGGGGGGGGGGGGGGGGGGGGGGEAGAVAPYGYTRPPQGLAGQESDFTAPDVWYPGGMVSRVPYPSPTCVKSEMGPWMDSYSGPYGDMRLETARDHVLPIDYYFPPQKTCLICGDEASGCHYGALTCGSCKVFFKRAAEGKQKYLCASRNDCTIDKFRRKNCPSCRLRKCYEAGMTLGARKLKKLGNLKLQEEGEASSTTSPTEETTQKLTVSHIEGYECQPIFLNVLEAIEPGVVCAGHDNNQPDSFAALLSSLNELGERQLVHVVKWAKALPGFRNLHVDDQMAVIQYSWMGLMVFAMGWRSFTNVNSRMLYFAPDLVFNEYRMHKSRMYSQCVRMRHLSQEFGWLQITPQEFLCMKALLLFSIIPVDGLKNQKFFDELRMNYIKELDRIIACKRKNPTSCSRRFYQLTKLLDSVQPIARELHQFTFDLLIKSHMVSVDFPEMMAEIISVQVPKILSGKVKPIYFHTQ
Procedure Text: OT_AR_ARSRC1_0960: Odyssey Thera (OT) 16-hour HEK293T Protein-Complementation Assay for Androgen Receptor/SRC-1 Co-activator (AID 2283353);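 note: actives raise the signal above DMSO so potency reflects increased AR and SRC-1 complex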
Activity calls are given as the source filed them. How the source made its calls: active means hit-call score of the fitted dose curve at least 0.9, where 1 is the maximum; inconclusive means response in the unintended direction; inactive means score below 0.9.
Can you answer with just one of these options? Y = active, N = inactive

Example results:
[
  {
    "Compound": "CC(C)Oc1cc(-n2nc(C(C)(C)C)oc2=O)c(Cl)cc1Cl",
    "Class Label": "Y"
  },
  {
    "Compound": "O=C(Nc1ccccc1)Nc1ccnc(Cl)c1",
    "Class Label": "N"
  },
  {
    "Compound": "CS/C(C)=N/OC(=O)N(C)SN(C)C(=O)O/N=C(\\C)SC",
    "Class Label": "Y"
  },
  {
    "Compound": "CCCC1COC(Cn2cncn2)(c2ccc(Cl)cc2Cl)O1 (stereo unspecified)",
    "Class Label": "Y"
  },
  {
    "Compound": "CCCCNC(=O)n1c(NC(=O)OC)nc2ccccc21",
    "Class Label": "N"
  }
]

In this assay, the call recorded for `N#Cc1cc(Br)c(O)c(Br)c1` was what?
N

---

Read-out: Interleukin-8 (IL8), CXCL8 (gene 3576)
Procedure Text: BSK_LPS_IL8: BioMAP Diversity Plus: LPS Assay for Interleukin-8 (IL8) Biomarker Activity (AID 2283078)
Condition Summary: primary human HUVEC with PBMC; actives raise or lower the signal
Calls of active or inactive are those of the source. How the source made its calls: active means hit-call score of the fitted dose curve at least 0.9, where 1 is the maximum; inactive means score below 0.9.
Measurement Kind: AC50

[
  {
    "Molecule": "CCNc1nc(Cl)nc(NC(C)C)n1",
    "Measured Result": "inactive"
  },
  {
    "Molecule": "N#Cc1nn(-c2c(Cl)cc(C(F)(F)F)cc2Cl)c(N)c1S(=O)C(F)(F)F (configuration not stated)",
    "Measured Result": "23.4 µM (active)"
  },
  {
    "Molecule": "C=CCC1=C(C)C(OC(=O)C2C(C=C(C)C)C2(C)C)CC1=O (configuration not stated)",
    "Measured Result": "32 µM (active) [middle of 4 runs]"
  },
  {
    "Molecule": "N#Cc1cc(Br)c(O)c(Br)c1",
    "Measured Result": "inactive"
  },
  {
    "Molecule": "COP(=S)(OC)Oc1nc(Cl)c(Cl)cc1Cl",
    "Measured Result": "inactive"
  }
]

Record AC50 per entry; entries follow.
1. Oc1ccccc1-c1ccccc1
2. CNC(=O)ON=CC(C)(C)SC

inactive
inactive

---

Read-out: serum amyloid A (SAA), SAA1 (gene 6288)
Procedure Text: BSK_CASM3C_SAA: BioMAP Diversity Plus: CASM3C Assay for serum amyloid A (SAA) Biomarker Activity (AID 2283049);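 note: SAA protein level quantified by ELISA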
Condition Summary: primary human coronary artery smooth muscle cells; actives raise or lower the signal
Active and inactive are the calls of the source. The calls were made as follows: active = hit-call score of the fitted dose curve at least 0.9, where 1 is the maximum; inactive = score below 0.9.
Can you answer with just one of these options? 1.0 (active), 0.0 (inactive)

[
  {
    "Compound": "COC(=O)C=C(C)OP(=O)(OC)OC",
    "Class Label": 0.0
  },
  {
    "Compound": "CCNc1nc(Cl)nc(NC(C)C)n1",
    "Class Label": 0.0
  },
  {
    "Compound": "CON(C)C(=O)Nc1ccc(Cl)c(Cl)c1",
    "Class Label": 0.0
  }
]

In this assay, the call recorded for `CNC(=O)ON=CC(C)(C)SC` was what?
1.0

In this assay, the call recorded for `COc1nc(C)nc(NC(=O)NS(=O)(=O)c2ccccc2CCC(F)(F)F)n1` was what?
0.0

In this assay, the call recorded for `N#Cc1cc(Br)c(O)c(Br)c1` was what?
0.0

In this assay, the call recorded for CCCCC(CC)COC(=O)c1ccccc1C(=O)OCC(CC)CCCC (configuration not stated) was what?
0.0

In this assay, the call recorded for CC1COC(Cn2cncn2)(c2ccc(Oc3ccc(Cl)cc3)cc2Cl)O1 (configuration not stated) was what?
0.0

In this assay, the call recorded for Cc1c(F)c(F)c(COC(=O)C2C(/C=C(\Cl)C(F)(F)F)C2(C)C)c(F)c1F (configuration not stated) was what?
0.0

In this assay, the call recorded for `Oc1ccccc1-c1ccccc1` was what?
0.0

---

Read-out: Tumor necrosis factor receptor superfamily member 6 (Homo sapiens)
Procedure Text: LTEA_HepaRG_FAS: Life Technologies and Expression Analysis (LTEA) Assay for Fas cell surface death receptor (FAS) using HepaRG (AID 2283447)
Condition Summary: mRNA level, 48 h; actives raise or lower the signal
The source made the active and inactive calls. Rule for the calls: active = hit-call score of the fitted dose curve at least 0.9, where 1 is the maximum; inactive = score below 0.9.
Can you answer with just one of these options? Yes (active), No (inactive)

Example results:
[
  {
    "Molecule": "CCCCNC(=O)n1c(NC(=O)OC)nc2ccccc21",
    "Class Label": "No"
  },
  {
    "Molecule": "COC(=O)c1ccccc1C(=O)OC",
    "Class Label": "No"
  },
  {
    "Molecule": "CCNc1nc(Cl)nc(NC(C)C)n1",
    "Class Label": "No"
  }
]

In this assay, the call recorded for `COC(=O)N(OC)c1ccccc1COc1ccn(-c2ccc(Cl)cc2)n1` was what?
Yes

In this assay, the call recorded for `CNC(=O)ON=CC(C)(C)SC` was what?
No

In this assay, the call recorded for `Oc1ccccc1-c1ccccc1` was what?
No

In this assay, the call recorded for C#CCOS(=O)OC1CCCCC1Oc1ccc(C(C)(C)C)cc1 (stereo not drawn) was what?
Yes

---

Procedure Text: ATG_M_06_TRANS: Attagene TRANS-FACTORIAL HepG2 Assay for M06 Transcription Factor (Internal Marker) (AID 2282983);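 note: reporter transcript level by RT-PCR then capillary electrophoresis fluorescence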
Condition Summary: HepG2 Attagene TRANS M06 internal marker reporter
Records with an inconclusive call do not appear. Activity calls are given as the source filed them. How the source made its calls: active means hit-call score of the fitted dose curve at least 0.9, where 1 is the maximum; inconclusive means response in the unintended direction; inactive means score below 0.9.
Measurement Kind: outcome

Recorded results for 4 compounds are shown here.
[
  {
    "Compound": "Cc1cc(Cl)ccc1OCC(=O)O",
    "outcome": "inactive"
  },
  {
    "Compound": "C=CCC1=C(C)C(OC(=O)C2C(C=C(C)C)C2(C)C)CC1=O (centres undefined)",
    "outcome": "inactive"
  },
  {
    "Compound": "COc1nc(C)nc(NC(=O)NS(=O)(=O)c2ccccc2Cl)n1",
    "outcome": "inactive"
  },
  {
    "Compound": "Cc1ccc(-c2c(Cl)nc(C#N)n2S(=O)(=O)N(C)C)cc1",
    "outcome": "inactive"
  }
]

Record outcome per entry; entries follow.
1. CCCCNC(=O)n1c(NC(=O)OC)nc2ccccc21
2. CCNc1nc(Cl)nc(NCC)n1
3. CCOC(=O)C(Cl)Cc1cc(-n2nc(C)n(C(F)F)c2=O)c(F)cc1Cl (centres undefined)
4. CCc1nn(C)c(C(=O)NCc2ccc(C(C)(C)C)cc2)c1Cl
5. CC(C)(C)c1ccc(CSc2cnn(C(C)(C)C)c(=O)c2Cl)cc1
6. COc1ccc(C(c2ccc(OC)cc2)C(Cl)(Cl)Cl)cc1
7. COc1cnc(OC)n2nc(NS(=O)(=O)c3c(OCC(F)F)cccc3C(F)(F)F)nc12
8. COC(=O)C(C)Oc1ccc(Oc2ccc(Cl)cc2Cl)cc1 (centres undefined)

1. inactive
2. inactive
3. inactive
4. inactive
5. inactive
6. inactive
7. inactive
8. inactive
